system: ATP; test: switch fluorescence ratio, 500 uM ATP over buffer (Cy3 cluster intensity, sum of 5 cycles each) (fold (ratio)); higher = stronger signal-on switching upon ATP binding; sequences stand for … in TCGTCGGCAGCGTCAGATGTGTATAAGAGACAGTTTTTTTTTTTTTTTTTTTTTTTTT…TC; details: aptamer strand: ATP DNA aptamer (quencher-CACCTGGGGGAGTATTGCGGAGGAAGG + anchor), 100 nM annealed; ATP concentration: 500 uM;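 note: ATP exposure 15 min at 22 °C before imaging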
Form field: switch fluorescence ratio (one value per entry).
experimental endpoint: switch fluorescence ratio

>>> observed_result("CTTTTGTAAT")
1.01
>>> observed_result("TTTGCCCAGA")
1.02
>>> observed_result("CAATTTAGTC")
0.983
>>> observed_result("TATTTTGGAG")
0.985
>>> observed_result("TATTTTTTTA")
0.997
>>> observed_result("GGTGGGTAAT")
0.983
>>> observed_result("TTGTTTTTT")
1.03
>>> observed_result("TTAACTGGTA")
0.99
>>> observed_result("TGGGGTATGG")
0.978
>>> observed_result("TCGGGTCAGT")
1
>>> observed_result("ATGAATCTAA")
1.01
>>> observed_result("GTGCATGCGT")
0.998
>>> observed_result("TAGTTAGTTT")
1.02
>>> observed_result("TACAGAGGTT")
1.01
>>> observed_result("ATAGGGGGGT")
1.02
>>> observed_result("CAGCCTTGGT")
1.04
>>> observed_result("GGTCTGAGGG")
0.97
>>> observed_result("GAGAGGTTTT")
1
>>> observed_result("CCGGATTGTC")
1.13
>>> observed_result("GCTCCGGGCG")
1.13
>>> observed_result("TTTTGTGACA")
1

###

tested on: ATP; assay: switch fluorescence ratio, 500 uM ATP over buffer (Cy3 cluster intensity, sum of 5 cycles each) (fold (ratio)); higher = stronger signal-on switching upon ATP binding; sequences stand for … in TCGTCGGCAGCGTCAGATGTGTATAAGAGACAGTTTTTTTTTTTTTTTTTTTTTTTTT…TC; conditions: aptamer strand: ATP DNA aptamer (quencher-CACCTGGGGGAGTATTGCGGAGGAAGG + anchor), 100 nM annealed; ATP concentration: 500 uM;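 note: ATP exposure 15 min at 22 °C before imaging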
Form field: switch fluorescence ratio (one value per entry).
experimental endpoint: switch fluorescence ratio

>>> observed_result("TTGTGTTTTC")
0.997
>>> observed_result("ATAACTTGGG")
0.994
>>> observed_result("ATGGAGGCGT")
0.994
>>> observed_result("TTTAACTGA")
1.04
>>> observed_result("AGGGCTGAGC")
0.996
>>> observed_result("GGTCGGCCGG")
1.02
>>> observed_result("AAAGGTGGGT")
1.51
>>> observed_result("TGATTGTACT")
1
>>> observed_result("ATTAAATGGG")
0.976
>>> observed_result("TCATTTGGAA")
0.99
>>> observed_result("GACGGTTGAG")
1.03
>>> observed_result("CTGGTCGCTG")
1.01
>>> observed_result("GATTTGGGCG")
1.04
>>> observed_result("TTAACTTGGG")
0.976
>>> observed_result("TTATGATGGT")
0.992
>>> observed_result("AATGTGTTTG")
0.992
>>> observed_result("CCCAATTTCT")
1.05
>>> observed_result("CGCCTGGCGT")
0.957
>>> observed_result("CAGGATTTGG")
0.985
>>> observed_result("TCTGCTAAGG")
0.984
>>> observed_result("GTCATAGTTC")
0.966
